Below is a list of entries, each paired with its recorded ECL signal/blank ratio (read-out not given) value.
study_system: T1, rHuman EGF R/Fc Chimera, CF (R&D Systems Cat#344-ER) (human, UniProt P00533 25-645)
T1 construct: Bought recombinant protein; also called epidermal growth factor receptor; Fc part of the bought chimera not given
measurement_notes: ECL multispot (MSD) assay, antigen spotted on plate, 20 nM Fab;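 further: purified Fab bound to plate-spotted antigen for 1 h at 20 °C, labelled detection antibody added, ratio of antigen ECL signal to same-well blank, ratio ≥4 counted as binder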
quantity_name: ECL signal/blank ratio (read-out not given)

>>> value_measured("Fab VH3-23_IGHD2-21*01>3_IGHJ6*01 H100E/S108P/Y113G Y60A & V2-13_IGLJ2*01 (Fab, V domains shown, Tested as a Fab made in E. coli; also called EPG Y60A) VH: EVQLLESGGGLVQPGGSLRLSCAASGFTFSSYAMSWVRQAPGKGLEWVSSISGSGGSTYAADSVKGRFTISRDNSKNTLYLQMNSLRAEDTAVYYCAKEEIVVVIAIPYYYYGYGMDVWGQGTLVTVSS VL: SSELTQDPAVSVALGQTVRITCQGDSLRSYYASWYQQKPGQAPVLVIYGKNNRPSGIPDRFSGSSSGNTASLTITGAQAEDEADYYCNSRDSSGNHLVVFGGGTKLTVL")
6.2
>>> value_measured("Fab VH3-23_IGHD2-21*01>3_IGHJ6*01 H100E/S108P/Y113G A61T & V2-13_IGLJ2*01 (Fab, V domains shown, Tested as a Fab made in E. coli; also called EPG A61T) VH: EVQLLESGGGLVQPGGSLRLSCAASGFTFSSYAMSWVRQAPGKGLEWVSSISGSGGSTYYTDSVKGRFTISRDNSKNTLYLQMNSLRAEDTAVYYCAKEEIVVVIAIPYYYYGYGMDVWGQGTLVTVSS VL: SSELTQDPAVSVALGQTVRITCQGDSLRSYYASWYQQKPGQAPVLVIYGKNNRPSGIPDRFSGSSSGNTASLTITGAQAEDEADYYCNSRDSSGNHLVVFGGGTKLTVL")
7.1
>>> value_measured("Fab VH3-23_IGHD2-21*01>3_IGHJ6*01 H100E/S108P/Y113G Y59A & V2-13_IGLJ2*01 (Fab, V domains shown, Tested as a Fab made in E. coli; also called EPG Y59A) VH: EVQLLESGGGLVQPGGSLRLSCAASGFTFSSYAMSWVRQAPGKGLEWVSSISGSGGSTAYADSVKGRFTISRDNSKNTLYLQMNSLRAEDTAVYYCAKEEIVVVIAIPYYYYGYGMDVWGQGTLVTVSS VL: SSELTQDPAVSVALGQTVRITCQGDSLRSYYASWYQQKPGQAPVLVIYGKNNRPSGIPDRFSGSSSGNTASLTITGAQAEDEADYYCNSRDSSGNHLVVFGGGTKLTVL")
1.4
>>> value_measured("Fab VH3-23_IGHD2-21*01>3_IGHJ6*01 H100E/S108P/Y113G T58A & V2-13_IGLJ2*01 (Fab, V domains shown, Tested as a Fab made in E. coli; also called EPG T58A) VH: EVQLLESGGGLVQPGGSLRLSCAASGFTFSSYAMSWVRQAPGKGLEWVSSISGSGGSAYYADSVKGRFTISRDNSKNTLYLQMNSLRAEDTAVYYCAKEEIVVVIAIPYYYYGYGMDVWGQGTLVTVSS VL: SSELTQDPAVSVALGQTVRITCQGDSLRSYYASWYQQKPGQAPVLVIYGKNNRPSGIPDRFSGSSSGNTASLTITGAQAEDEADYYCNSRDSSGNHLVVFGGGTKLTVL")
9.6
